// data source = paper PMC6691788

Test system: SF-268
Experiment: NCI 60 cell panel SRB screen
Type: cell-based
Conditions: Homo sapiens; SF-268, 5 log dose
outcome_measure: IC (TGI) (µM)

compound | readout_units | measured
O=C(Nc1ccccc1)Nc1ccc(Oc2nnc(Cl)c3ccccc23)cc1 [Compound 13a] | µM | 7.57
Cc1nnc(Nc2ccc(NC(=O)Nc3ccc(Cl)cc3)cc2)c2ccccc12 | µM | 7.17
O=C(Nc1ccc(Cl)cc1)Nc1ccc(Oc2nncc3ccccc23)cc1 | µM | 7.21
Clc1ccc(Nc2nnc(COc3ccccc3)c3ccccc23)cc1 [Compound 17a] | µM | 12.9

* * *

Parameter GI50, tested on OVCAR-5, listed per item.

compound | GI50 [µM]
O=C(Nc1ccccc1)Nc1ccc(Oc2nnc(Cl)c3ccccc23)cc1 [Compound 13a] | 5.61
Clc1ccc(Nc2nnc(COc3ccccc3)c3ccccc23)cc1 [Compound 17a] | 3.88
COc1cccc(NCc2nnc(Nc3ccc(Cl)cc3)c3ccccc23)c1 [Compound 16d] | 3.38
O=C(Nc1ccc(Cl)cc1)Nc1ccc(Nc2nncc3ccccc23)cc1 [Compound 6b] | 4.15
